The reported numbers originate from patent US20220380368A1.

- experiment.description: Mouse PK studies after oral and IV dosing
- Type: in vivo
- particulars: in vivo, iv, 1 mg/kg, IV, dose 1 mg/kg, read-out: IV T1/2 (converted)
- Procedure: The pharmacokinetics of representative Compounds of the Disclosure were determined after oral and IV dosing at the concentrations indicated in mouse (Table 7). […] The vehicles used in these studies are either (i) 10% PEG400+90% PBS (adjusted to pH to 8.0 by 0.5 N NaOH); or (ii) 100% PEG200.
# maps each entry to its half-life
State just the number; it will be interpreted in h.

// below: answered compounds
{"compound": "C[C@H]1CC2(CCN(c3cnc(C(=O)N4CCC(N5CCN(c6ccc7c(c6)C(=O)N(C6CCC(=O)NC6=O)C7=O)CC5)CC4)cn3)CC2)CN1c1ccc(C#N)c(Cl)c1 (some centres unmarked)", "half-life, h": 2.7}
{"compound": "C[C@H]1CC2(CCN(c3ccc(C(=O)N4CCC(CN5CCN(c6ccc7c(c6)C(=O)N(C6CCC(=O)NC6=O)C7=O)CC5)CC4)nn3)CC2)CN1c1ccc(C#N)c(Cl)c1 (some centres unmarked)", "half-life, h": 7.45}

Which half-life value is on record for C[C@H]1CC2(CCN(c3ccc(C(=O)N4CCN(CC5CN(c6ccc7c(c6)C(=O)N(C6CCC(=O)NC6=O)C7=O)C5)CC4)c(F)c3)CC2)CN1c1ccc(C#N)c(Cl)c1 (some centres unmarked) ? 10.2

Note, next up: C[C@H]1CC2(CCN(c3ccc(C(=O)N4CCC(CN5CCN(c6cc7c(cc6F)C(=O)N(C6CCC(=O)NC6=O)C7=O)CC5)CC4)nn3)CC2)CN1c1ccc(C#N)c(Cl)c1 (some centres unmarked) 8.7

Note, next up: C[C@H]1CC2(CCN(c3ccc(C(=O)N4CCN(C5CN(c6ccc7c(c6)C(=O)N(C6CCC(=O)NC6=O)C7=O)C5)CC4)cc3F)CC2)CN1c1ccc(C#N)c(Cl)c1 (some centres unmarked) 8.3
